# Tested on: Klebsiella pneumoniae
# assay.remarks: Inhibition of DHPS in Klebsiella pneumoniae assessed as antibacterial activity by measuring inhibition zone at 5 mg/mL incubated for 24 hrs by disk diffusion method
observable: inhibition zone (IZ) (mm)
Give the number; mm is assumed, so skip it.

Field inhibition zone (IZ) (entry CCS/C(NC)=C(\C#N)C(=O)Nc1ccc(S(=O)(=O)Nc2onc(C)c2C)cc1 ) reads 21.3

Note to self: inhibition zone (IZ) recorded for Cc1noc(NS(=O)(=O)c2ccc(N)cc2)c1C was 18.2

inhibition zone (IZ) for C=CCN/C(S[C@@H]1O[C@H](COC(C)=O)[C@H](OC(C)=O)[C@H](OC(C)=O)[C@H]1OC(C)=O)=C(/C#N)C(=O)Nc1ccc(S(=O)(=O)Nc2onc(C)c2C)cc1 is 21.2

====

# Test system: Streptococcus pneumoniae
# assay.remarks: Inhibition of DHPS in Streptococcus pneumoniae assessed as antibacterial activity by measuring inhibition zone at 5 mg/mL incubated for 24 hrs by disk diffusion method
Calls of active or inactive are those of the source. No cut-off for these calls is given here.
observable: inhibition zone (IZ)

As a guide, the following entries are already answered.
structure.string: CS/C(Nc1ccccc1)=C(\C#N)C(=O)Nc1ccc(S(=O)(=O)Nc2onc(C)c2C)cc1
reading: inactive
//
structure.string: C=CCN/C(S[C@@H]1O[C@H](COC(C)=O)[C@H](OC(C)=O)[C@H](OC(C)=O)[C@H]1OC(C)=O)=C(/C#N)C(=O)Nc1ccc(S(=O)(=O)Nc2onc(C)c2C)cc1
reading: 19.3 mm
//
structure.string: Cc1noc(NS(=O)(=O)c2ccc(NC(=O)c3c(N)n[nH]c3Nc3ccccc3)cc2)c1C
reading: inactive
//
structure.string: CC(=O)OC[C@H]1O[C@@H](S/C(Nc2ccccc2)=C(\C#N)C(=O)Nc2ccc(S(=O)(=O)Nc3onc(C)c3C)cc2)[C@H](OC(C)=O)[C@@H](OC(C)=O)[C@H]1OC(C)=O
reading: 15.1 mm
//
structure.string: CCS/C(NC12CC3CC(CC(C3)C1)C2)=C(\C#N)C(=O)Nc1ccc(S(=O)(=O)Nc2onc(C)c2C)cc1
reading: inactive
//
structure.string: CCN/C(SCC)=C(/C#N)C(=O)Nc1ccc(S(=O)(=O)Nc2onc(C)c2C)cc1
reading: 24.3 mm
//
structure.string: CCN/C(S[C@@H]1O[C@H](COC(C)=O)[C@@H](OC(C)=O)[C@H](OC(C)=O)[C@H]1OC(C)=O)=C(/C#N)C(=O)Nc1ccc(S(=O)(=O)Nc2onc(C)c2C)cc1
reading: 25.3 mm

Next up:
The recorded inhibition zone (IZ) for Cc1noc(NS(=O)(=O)c2ccc(NC(=O)/C(C#N)=C(/S)NC34CC5CC(CC(C5)C3)C4)cc2)c1C is 16.9 mm

====

Give Ratio for every item shown.
# Test system: Geotrichum candidum
# assay.remarks: Potency index, ratio of sulfisoxazole MIC to compound MIC for Geotrichum candidum assessed as inhibition of DHPS-mediated fungal growth incubated for 48 hrs by microbroth dilution method

GET /values?item= CCN/C(S[C@@H]1O[C@H](COC(C)=O)[C@@H](OC(C)=O)[C@H](OC(C)=O)[C@H]1OC(C)=O)=C(/C#N)C(=O)Nc1ccc(S(=O)(=O)Nc2onc(C)c2C)cc1 &system= Geotrichum candidum returns Ratio: 3 to 5

Ratio of CN/C(S[C@@H]1O[C@H](COC(C)=O)[C@@H](OC(C)=O)[C@H](OC(C)=O)[C@H]1OC(C)=O)=C(/C#N)C(=O)Nc1ccc(S(=O)(=O)Nc2onc(C)c2C)cc1 , assay on Geotrichum candidum, is 3 to 5

Recorded Ratio for C=CCN/C(S[C@@H]1O[C@H](COC(C)=O)[C@@H](OC(C)=O)[C@H](OC(C)=O)[C@H]1OC(C)=O)=C(/C#N)C(=O)Nc1ccc(S(=O)(=O)Nc2onc(C)c2C)cc1 on Geotrichum candidum was 3 to 5
